- System: OVCAR-5 ovarian
- ASSAY NAME: NCI tumour cell line growth inhibition, 48 h; in the data active means GI50 below about 0.43 µM; inactive means the rest
Where a SMILES comes first, the peptide text is derived from it. [ ]: non-standard residue; d: D form. The star is where a group is joined. Bn2Val = CC(C)[C@@H](C(=O)*)N(Cc1ccccc1)Cc1ccccc1; NH(3,4-diMeO-benzyl) = COc1ccc(CN*)cc1OC; NMeV = CN[C@H](C(=O)O)C(C)C; dNMeA = CN[C@H](C)C(=O)O
API: response.call in 1 for active, 0 for inactive

These solved cases illustrate the format of a correct answer.
COc1ccc(CNC(=O)[C@@H](C)N(C)C(=O)[C@@H]2CCCN2C(=O)[C@H](C(C)C)N(C)C(=O)[C@@H](NC(=O)[C@H](C(C)C)N(Cc2ccccc2)Cc2ccccc2)C(C)C)cc1OC (Bn2Val-V[NMeV]P[dNMeA]-{NH(3,4-diMeO-benzyl)}); 0
COC(=O)c1c2c(c(C)[n+]([O-])c1C)C(=O)C=CC2=O; 0
ClCc1ccccc1CSc1ncnc2nc[nH]c12; 0

Prompt: Hey, what did the test say about Cn1c(-c2nonc2N)nc2cnccc21 ?
Completion: 0

Prompt: Tell me the recorded outcome of this test for COC(=O)[C@@H](C)C[C@H](Cc1ccccc1)NC(=O)c1nc([C@@H](C[C@H](C(C)C)N(C)C(=O)[C@@H](NC(=O)[C@H]2CCCN2C)C(C)C)OC(C)=O)sc1C .
Completion: 1

###

- Test system: HCC-2998 colon
- ASSAY NAME: NCI tumour cell line growth inhibition, 48 h
MEASURED ATTRIBUTE: TGI

C=CCCCC12CCCc3cccc(c31)NC2=O (configuration not stated); 30.8 µM
Cn1c(-c2nonc2N)nc2cnccc21; > 25 µM

According to the records, this compound COC(=O)[C@@H](C)C[C@H](Cc1ccccc1)NC(=O)c1nc([C@@H](C[C@H](C(C)C)N(C)C(=O)[C@@H](NC(=O)[C@H]2CCCN2C)C(C)C)OC(C)=O)sc1C displays TGI of > 25 µM

// recorded TGI for Cc1ccc(C2=Nc3c(c(C)nn3-c3ccccc3)N=C(C(=O)O)C2)cc1 : > 10 µM

Per the record, COc1ccc(CNC(=O)COc2ccc(/C=N/Nc3nc4ccccc4s3)cc2)cc1 has TGI of > 100 µM

The compound listed as O=c1c2cc(I)ccc2[nH]c(=S)n1Cc1ccccc1 shows TGI equal to > 100 µM

Given item COc1cc2c(c(O)c1C)C(=O)C(Cl)=CC2=O , the value recorded as its TGI is 44.8 µM

Notebook: C1CN2N3CCCC23C1 (configuration not stated) , TGI read as > 100 µM

Given item CC1(C)N=C(N)N=C(N)N1c1ccc(CCCCc2ccc(S(=O)(=O)F)cc2Cl)c(Cl)c1 , the value recorded as its TGI is 67.1 µM

Reported TGI for COc1ccc(CN2CCCC(C(=O)c3ccc(C(F)(F)F)cc3)C2)c(O)c1 (configuration not stated) was 56.3 µM

compound N#Cc1cnn2ccn(C3OC(COC(=O)c4ccccc4)C(OC(=O)c4ccccc4)C3OC(=O)c3ccccc3)c12 (configuration not stated) , TGI observed: > 21.5 µM

Recorded TGI (compound COc1cccc(-c2nn(-c3ccccc3)cc2-c2ccnc(NCCCNS(=O)(=O)c3cccc(F)c3)c2)c1 ): > 100 µM

For this compound ( CCCCCCCCCCCCOC1C(CNCC2OC3OC(C)(C)OC3C2NC(=O)Nc2ccc(C(=O)OCC)cc2)OC2OC(C)(C)OC21 (configuration not stated) ), measured TGI is 3.23 µM

compound O=c1nc2c(c(-c3cccc(Cl)c3)[nH]1)COC/C2=C\c1cccc(Cl)c1 , TGI observed: > 100 µM

TGI for N#Cc1c(O)c2c(c(O)c1C#N)C(=O)c1ccccc1C2=O is 8.59 µM

The compound identified as COc1ccc(-n2cc(-c3ccc(OC)c(OC)c3)[nH]c2=S)cc1Cl registered its TGI at > 100 µM

Looking up c1ccc2c(c1)CCCN1CCc3ccccc3C21 (configuration not stated) , I found its TGI recorded as > 100 µM

# compound COc1ccc(CNc2nc3ccc(C(F)(F)F)cc3nc2-c2ccccc2)cc1OC ; its TGI = > 100 µM

###

- System: SNB-75 CNS
- ASSAY NAME: NCI tumour cell line growth inhibition, 48 h
MEASURED ATTRIBUTE: TGI (µM)
Your answer should be a plain number; it is taken to be in µM.

Record excerpt, results attached:
OCc1c(-c2cccc3ccccc23)sc(-c2cccc3ccccc23)c1CO; 30.7
COc1ccc(CNC(=O)COc2ccc(/C=N/Nc3nc4ccccc4s3)cc2)cc1; 3.29
Cc1cc(O)cc(O)c1N=Nc1ccc([N+](=O)[O-])cc1; 45.6
N#Cc1nc(-c2ccc(F)cc2)oc1S(=O)(=O)N1CCOCC1; 22
O=[n+]1c(CBr)c(CBr)n([O-])c2ccccc21; 47.6

// sample CC1=C2[C@@H](CC1)[C@]1(C)O[C@@](C(C)C)(C[C@H]1OC(=O)[C@H](C)O)[C@H]2OC(=O)/C=C/c1ccccc1 , its TGI was 51.2

// recorded TGI for O=C1c2ccccc2C(=O)c2c1ccc1[nH]c(CCl)nc21 : 10.8

Entry O=C1/C(=C/c2ccc(F)cc2)CNC/C1=C\c1ccc(F)cc1 , TGI reported as 18.3

Entry CCN1CCN(c2nc(NCCNc3ccnc4cc(Cl)ccc34)c3ccccc3n2)CC1 , TGI reported as 5.85

Given item Cc1c(N2C(=O)/C(=C\c3ccccc3O)N=C2c2ccccc2)c(=O)n(-c2ccccc2)n1C , the value recorded as its TGI is 40.3

Per the records, this compound ( CC1(C)N=C(N)N=C(N)N1c1ccc(CCCCc2ccc(S(=O)(=O)F)cc2Cl)c(Cl)c1 ) has TGI equal to 54.7

Kindly note the recorded TGI for O=C(O/N=C1/CCC/C1=C\c1ccccc1)c1ccc([N+](=O)[O-])cc1 , which is 91.3

Lab note: measured TGI of N#Cc1c(O)c2c(c(O)c1C#N)C(=O)c1ccccc1C2=O was 3.94

Input COc1ccc(-n2cc(-c3ccc(OC)c(OC)c3)[nH]c2=S)cc1Cl . Output TGI: 21

Notebook: CCOC(=O)c1c(SCCN2CCCC2)n(-c2ccccc2)c(=S)n(-c2ccccc2)c1=O , TGI read as 19.5

###

- Test system: DU-145 prostate
- ASSAY NAME: NCI tumour cell line growth inhibition, 48 h
Recorded TGI values for a group of compounds are listed next.

COC(=O)CCCC(=O)C(=Nc1c(Cl)cccc1Cl)NNc1ccc(Cl)cc1; > 100 µM
CN1CCN(C(=S)N(C)C(=O)c2ccc(Cl)cc2)CC1; > 100 µM

Let me check: Clc1ccc(Cc2nc3cc4ccccc4cc3[nH]2)cc1 , system DU-145 prostate, measured TGI is > 100 µM

Entry CCN(CC)CCCn1c(=O)c2cccnc2n2c3c(=O)n(C)c(=O)n(C)c3nc12 , tested on DU-145 prostate, has a reported TGI of > 100 µM

Readout TGI for NS(=O)(=O)c1ccc(-n2nc(-c3ccc(Br)cc3)ccc2=O)cc1 , test system DU-145 prostate, was > 10 µM

The compound Cc1nc(Cl)c(CBr)c(Cl)n1 , when measured on DU-145 prostate, yielded TGI of 8.33 µM

Hey, DU-145 prostate data for Cc1nc2ccc([N+](=O)[O-])cc2c(=O)n1C(=S)Nc1cccc(Cl)c1 : TGI came out at > 100 µM

###

- Tested on: SW-620 colon
- ASSAY NAME: NCI tumour cell line growth inhibition, 48 h
MEASURED ATTRIBUTE: TGI

Sample answers from the record:
O=C(O)CNC(=O)c1ccc([As](=O)(O)O)cc1; > 100 µM
O=c1nc2c(c(-c3cccc(Cl)c3)[nH]1)COC/C2=C\c1cccc(Cl)c1; > 100 µM
CCN1CCN(c2nc(NCCNc3ccnc4cc(Cl)ccc34)c3ccccc3n2)CC1; 5.14 µM
O=C1/C(=C/c2ccc(Br)s2)NC(=S)N1CN1CCOCC1; > 100 µM

Note: attention shifts to another entry.
Record for O=C1C(Cl)N(c2ccccc2)C1c1c[nH]c2ccccc12 (stereo not given) under target or system SW-620 colon: TGI reported as > 100 µM

###

- System: MOLT-4 leukemia
- ASSAY NAME: NCI tumour cell line growth inhibition, 48 h
MEASURED ATTRIBUTE: TGI

ClCc1ccccc1CSc1ncnc2nc[nH]c12; > 60 µM
CCOC(=O)c1cnc2[nH]ccn2c1=O; > 10 µM
O=C1CC[C@H]2CNC(=O)C[C@H]2C1; > 100 µM
O=C1CC(c2ccc([N+](=O)[O-])cc2)C2(C(=O)NC(=S)NC2=O)C(c2ccc([N+](=O)[O-])cc2)C1 (stereo not given); > 100 µM

Summary for this molecule, CC1=CC(=O)N(n2c(C)n[nH]c2=O)C1=O : TGI is > 100 µM
